Data credit: patent US8742113B2

experimental-system: human Cdc7/human ASK complex protein (Homo sapiens (Human), UniProt O00311)
Sequence (O00311 whole entry): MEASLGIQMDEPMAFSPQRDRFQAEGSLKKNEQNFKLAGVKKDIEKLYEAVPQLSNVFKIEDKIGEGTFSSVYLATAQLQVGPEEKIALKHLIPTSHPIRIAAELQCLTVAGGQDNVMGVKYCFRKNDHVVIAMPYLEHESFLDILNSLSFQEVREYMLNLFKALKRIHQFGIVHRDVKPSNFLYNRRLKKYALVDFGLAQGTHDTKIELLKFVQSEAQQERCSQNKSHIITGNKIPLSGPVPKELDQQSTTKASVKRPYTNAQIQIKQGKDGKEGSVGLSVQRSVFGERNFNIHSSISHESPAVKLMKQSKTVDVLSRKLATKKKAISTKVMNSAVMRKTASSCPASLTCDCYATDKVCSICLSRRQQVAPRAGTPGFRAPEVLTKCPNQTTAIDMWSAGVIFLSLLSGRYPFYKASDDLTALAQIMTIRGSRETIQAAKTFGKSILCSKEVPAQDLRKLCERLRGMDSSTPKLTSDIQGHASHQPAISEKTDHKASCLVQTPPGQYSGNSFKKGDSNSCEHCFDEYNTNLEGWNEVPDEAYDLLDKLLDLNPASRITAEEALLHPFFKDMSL
Sequence (Q9UBU7 whole entry partner): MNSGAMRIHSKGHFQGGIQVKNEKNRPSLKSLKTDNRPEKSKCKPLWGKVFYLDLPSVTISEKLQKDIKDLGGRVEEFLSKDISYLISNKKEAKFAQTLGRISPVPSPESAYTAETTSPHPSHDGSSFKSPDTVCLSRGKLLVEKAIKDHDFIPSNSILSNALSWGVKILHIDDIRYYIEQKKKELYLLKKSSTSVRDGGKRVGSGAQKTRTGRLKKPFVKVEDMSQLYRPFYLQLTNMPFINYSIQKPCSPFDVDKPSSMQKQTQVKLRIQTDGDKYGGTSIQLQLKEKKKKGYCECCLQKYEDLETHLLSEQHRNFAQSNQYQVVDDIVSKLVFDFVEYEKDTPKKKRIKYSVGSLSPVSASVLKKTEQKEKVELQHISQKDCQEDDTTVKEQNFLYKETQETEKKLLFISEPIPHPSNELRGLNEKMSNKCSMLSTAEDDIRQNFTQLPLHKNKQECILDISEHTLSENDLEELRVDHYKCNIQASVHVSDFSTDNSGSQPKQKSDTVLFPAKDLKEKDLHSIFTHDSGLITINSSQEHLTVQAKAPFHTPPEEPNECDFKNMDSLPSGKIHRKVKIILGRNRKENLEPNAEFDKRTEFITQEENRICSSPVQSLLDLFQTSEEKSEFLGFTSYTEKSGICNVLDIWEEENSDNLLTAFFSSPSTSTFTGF
method-notes: Inhibitory effect on Cdc7 protein kinase (MSA assay kit)
Assay type: biochemical
settings: human Cdc7/human ASK complex, FITC-labeled MCM2 peptide substrate, reaction 5 hours at room temperature; read-out: Test Example 1 Cdc7 IC50 value
Exercise: state measured pIC50 for each of the molecules provided.
One number for each entry, as −log10 of the molar value.

INSERT INTO measurements (substance_smiles, assay_result) VALUES
  ('CCOC(=O)C1=C(NN2CCN(CC(F)(F)F)CC2)O/C(=C\c2c[nH]c3ncccc23)C1=O', 8.10);

Would you mind listing pIC50 for each of the following molecules?
1. Cc1cc(OCCO)ccc1NC1=C(C(=O)OC(C)C)C(=O)/C(=C/c2c[nH]c3ncccc23)O1
2. CCOC(=O)C1=C(NN2CCOCC2)O/C(=C\c2c[nH]c3ncccc23)C1=O
3. O=C(OCCCO)C1=C(Nc2ccc(F)cc2)O/C(=C\c2c[nH]c3ncccc23)C1=O
4. CCOC(=O)C1=C(N2CCC(C)CC2)O/C(=C\c2c[nH]c3ncccc23)C1=O
5. Cc1cc(F)ccc1NC1=CC(=O)/C(=C/c2c[nH]c3ncccc23)O1

Out:
1: 8.52; 2: 8.52; 3: 8.52; 4: 7.96; 5: 8.70

Would you mind listing pIC50 for each of the following molecules?
1. CCOC(=O)C1=C(Nc2ccc3cn[nH]c3c2)O/C(=C\c2c[nH]c3ncccc23)C1=O
2. CCOC(=O)C1=C(Nc2ccccc2Cl)O/C(=C\c2c[nH]c3ncccc23)C1=O

Out:
1. 8.40
2. 8.70
